Listing of entries alongside the reported IC50.
assaySystem: PBCV-1 GTase (Paramecium bursaria Chlorella virus 1)
procedureDetails: Inhibition of the first step of the GTase reaction (E-GMP formation)
Type: biochemical
Design: His-tag; made in house
details: read-out: IC50 for E-GMP formation, 1st step; 0.2 pmol [α-32P] GTP, PBCV-1 GTase 10 µM, analogue up to 2 mM, pH 7.5, 1hr at 30°C
Give the number; µM is assumed, so skip it.

Examples from the recorded data:
{"smilesCode": "CSc1ncnc2c1ncn2[C@@H]1O[C@H](COP(=O)(O)OP(=O)(O)OP(=O)(O)O)[C@@H](O)[C@H]1O", "resultUnit": "µM", "numericReadout": 1200}
{"smilesCode": "CSc1nc(N)nc2c1ncn2[C@@H]1O[C@H](COP(=O)(O)OP(=O)(O)OP(=O)(O)O)[C@@H](O)[C@H]1O", "resultUnit": "µM", "numericReadout": 430}

Here's the next entry for you.
Look up IC50 for this compound: "Nc1nc2c(nc(I)n2[C@@H]2O[C@H](COP(=O)(O)OP(=O)(O)OP(=O)(O)O)[C@@H](O)[C@H]2O)c(=O)[nH]1" 420

---

assaySystem: UniProt:Q84424
procedureDetails: Inhibition of the first step of the GTase reaction (E-GMP formation)
Assay type: biochemical
Design: His-tag; made in house
Procedure: Inhibition of the first step of the GTase reaction was evaluated by carrying out the standard first step GTase reaction in the presence of 0.2 pmol of [α-^32P] GTP and 2 mM of either unlabelled GTP or each unlabelled nucleotide analogue separately. The IC50 of nucleotide analogues was determined by carrying out the standard first step reaction in the presence of 0.2 pmol of [α-^32P] GTP and increasing concentrations of up to 2 mM of each nucleotide analogue. […]
assayMetric: IC50
Number first, unit second: that is the form wanted.

Look up IC50 for this compound: Nc1nc2c(ncn2[C@@H]2O[C@H](COP(=O)(O)OP(=O)(O)OP(=O)(O)O)[C@@H](O)[C@H]2O)c(=O)[nH]1 [GTP, reference compound] 100 µM

---

assaySystem: PBCV-1 GTase (Paramecium bursaria Chlorella virus 1)
procedureDetails: Inhibition of the first step of the GTase reaction (E-GMP formation)
Assay type: biochemical
Design: His-tag; made in house
details: 0.2 pmol [α-32P] GTP, PBCV-1 GTase 10 µM, analogue up to 2 mM, pH 7.5, 1hr at 30°C; read-out: IC50 for E-GMP formation, 1st step
assayMetric: IC50

Look up IC50 for this compound: Nc1ncnc2c1ncn2[C@@H]1O[C@H](COP(=O)(O)OP(=O)(O)OP(=O)(O)O)[C@@H](O)[C@H]1O [ATP, reference compound] > 2000 µM

---

assaySystem: PBCV-1 GTase (Paramecium bursaria Chlorella virus 1, UniProt Q84424)
Sequence (Q84424 whole entry): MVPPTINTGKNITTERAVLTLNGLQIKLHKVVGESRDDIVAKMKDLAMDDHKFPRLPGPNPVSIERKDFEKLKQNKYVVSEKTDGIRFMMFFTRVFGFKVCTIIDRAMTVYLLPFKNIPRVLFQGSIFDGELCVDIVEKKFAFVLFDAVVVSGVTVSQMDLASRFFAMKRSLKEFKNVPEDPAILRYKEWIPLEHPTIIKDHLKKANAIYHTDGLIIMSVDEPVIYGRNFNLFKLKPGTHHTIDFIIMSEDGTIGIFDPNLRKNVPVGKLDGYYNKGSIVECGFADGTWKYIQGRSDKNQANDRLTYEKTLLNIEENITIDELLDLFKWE
procedureDetails: In vitro RNA capping efficiency (nuclease P1 / alkaline phosphatase digestion, TLC)
details: nucleotide 2 mM; normalized onto the value obtained with GTP
Listing of entries alongside the reported Relative efficiency of RNA capping, 1st and 2nd steps.
The response must contain the number and no unit.

{"compound": "CSc1nc(N)nc2c1ncn2[C@@H]1O[C@H](COP(=O)(O)OP(=O)(O)OP(=O)(O)O)[C@@H](O)[C@H]1O", "numericReadout": 0.07}
{"compound": "Nc1nc2c(nc(I)n2[C@@H]2O[C@H](COP(=O)(O)OP(=O)(O)OP(=O)(O)O)[C@@H](O)[C@H]2O)c(=O)[nH]1", "numericReadout": 1.0}
{"compound": "COc1nc(N)nc2c1ncn2[C@@H]1O[C@H](COP(=O)(O)OP(=O)(O)OP(=O)(O)O)[C@@H](O)[C@H]1O", "numericReadout": 0.48}
{"compound": "Cn1c(N)nc2c(ncn2[C@@H]2O[C@H](COP(=O)(O)OP(=O)(O)OP(=O)(O)O)[C@@H](O)[C@H]2O)c1=O", "numericReadout": 1.1}
{"compound": "O=c1[nH]cnc2c1ncn2[C@@H]1O[C@H](COP(=O)(O)OP(=O)(O)OP(=O)(O)O)[C@@H](O)[C@H]1O", "numericReadout": 1.3}

Look up Relative efficiency of RNA capping, 1st and 2nd steps for this compound: Nc1nc2c(ncn2[C@@H]2O[C@H](COP(=O)(O)OP(=O)(O)OP(=O)(O)O)[C@@H](O)[C@H]2O)c(=O)[nH]1 [GTP, reference compound] 1.0

Also need "Nc1nc2c(nc(Br)n2[C@@H]2O[C@H](COP(=O)(O)OP(=O)(O)OP(=O)(O)O)[C@@H](O)[C@H]2O)c(=O)[nH]1" , thanks. 0.40

Also need "Nc1nc(Cl)c2ncn([C@@H]3O[C@H](COP(=O)(O)OP(=O)(O)OP(=O)(O)O)[C@@H](O)[C@H]3O)c2n1" , thanks. 0.08
